The values you see were collected from patent US11780830B2.

target under test: recombinant human MAO-B (monoamine oxidase-B) (Homo sapiens, UniProt P27338)
Construct: purchased Sigma-Aldrich
Sequence (P27338 whole entry): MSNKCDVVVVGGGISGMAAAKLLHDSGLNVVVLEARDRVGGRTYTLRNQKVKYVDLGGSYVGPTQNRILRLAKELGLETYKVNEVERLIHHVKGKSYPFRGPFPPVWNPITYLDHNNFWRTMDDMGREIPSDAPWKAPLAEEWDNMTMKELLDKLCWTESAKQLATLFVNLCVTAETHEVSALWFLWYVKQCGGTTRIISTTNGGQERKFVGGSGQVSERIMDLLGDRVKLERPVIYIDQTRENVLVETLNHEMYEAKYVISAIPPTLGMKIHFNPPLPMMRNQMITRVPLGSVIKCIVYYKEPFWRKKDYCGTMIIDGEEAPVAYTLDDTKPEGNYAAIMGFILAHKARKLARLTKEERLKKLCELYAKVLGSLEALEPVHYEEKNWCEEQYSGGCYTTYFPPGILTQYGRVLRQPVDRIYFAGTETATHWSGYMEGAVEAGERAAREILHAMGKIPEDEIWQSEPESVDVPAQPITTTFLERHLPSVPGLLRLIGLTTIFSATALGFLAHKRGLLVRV
experiment notes: Activity on recombinant human MAO-B, method similar to the VAP-1 assay
Assay type: biochemical
recorded conditions: substrate 1 mM benzylamine; read-out: Inhibitory Activity (IC50, nM) MAO-B
Where a name gives a salt, the structure may show the parent alone.
Label Condition met when IC50 is strictly below 600 nM; at or above that, label Condition not met.

> print(dat)
                                   compound                         target.under.test        group.label
1  COC(=O)c1ccc(-c2ccc(Cn3cnn(C/C(=C/F)CN)c3=O)s2)cc1 [Example 10, hydrochloride]  recombinant human MAO-B (monoamine oxidase-B) (Homo sapiens, UniProt P27338)      Condition met
2  Cc1cscc1-c1ccc(Cn2cnn(C/C(=C/F)CN)c2=O)s1 [Example 165]  recombinant human MAO-B (monoamine oxidase-B) (Homo sapiens, UniProt P27338)      Condition met
3  Cc1cc(-c2ccc3sc(Cn4cnn(C/C(=C/F)CN)c4=O)cc3c2)cc2c1NC(=O)CC2 [Example 210]  recombinant human MAO-B (monoamine oxidase-B) (Homo sapiens, UniProt P27338)  Condition not met
4  Cc1c(-c2ccc(Cn3cnn(C/C(=C/F)CN)c3=O)s2)ccc2c1NC(=O)CC2 [Example 88]  recombinant human MAO-B (monoamine oxidase-B) (Homo sapiens, UniProt P27338)  Condition not met
5  Cc1cc(-c2ccc(Cn3cnn(C/C(=C/F)CN)c3=O)s2)cc2c(C(F)(F)F)cc(=O)[nH]c12 [Example 83]  recombinant human MAO-B (monoamine oxidase-B) (Homo sapiens, UniProt P27338)  Condition not met
6  Cc1cc(-c2ccc(CCn3cnn(C/C(=C/F)CN)c3=O)s2)cc2c1NC(=O)CC2 [Example 218]  recombinant human MAO-B (monoamine oxidase-B) (Homo sapiens, UniProt P27338)  Condition not met

Problem: Lab log: compare recorded IC50 with 600 nM; is it strictly lower for CS(=O)(=O)c1ccc(-c2ccc3sc(Cn4cnn(C/C(=C/F)CN)c4=O)cc3c2)cc1 [Example 208] ?
Solution: Condition not met

Problem: Lab log: compare recorded IC50 with 600 nM; is it strictly lower for CNS(=O)(=O)c1cccc(-c2ccc(Cn3cnn(C/C(=C/F)CN)c3=O)s2)c1 [Example 8, hydrochloride] ?
Solution: Condition met

Problem: Lab log: compare recorded IC50 with 600 nM; is it strictly lower for CNc1ncc2cc(-c3ccc(Cn4cnn(C/C(=C/F)CN)c4=O)s3)ccc2n1 [Example 112, hydrochloride] ?
Solution: Condition not met

Problem: Lab log: compare recorded IC50 with 600 nM; is it strictly lower for COC(=O)c1cc(F)cc(-c2ccc(Cn3cnn(C/C(=C/F)CN)c3=O)s2)c1 [Example 13, hydrochloride] ?
Solution: Condition met

###

target under test: recombinant human MAO-B (monoamine oxidase-B) (Homo sapiens)
Construct: purchased Sigma-Aldrich
experiment notes: Activity on recombinant human MAO-B, method similar to the VAP-1 assay
Assay type: biochemical
recorded conditions: substrate 1 mM benzylamine; read-out: Inhibitory Activity (IC50, nM) MAO-B
Counter-ions that a name gives are not always drawn.
parameter measured: IC50 (nM)
Enter your answer as a number in nM; do not include the unit.

# annotated cases, reported IC50 shown
> print(dat)
                                   compound  unit.symbol  recorded.measurement
1  CSc1ncc(-c2ccc(Cn3cnn(C/C(=C/F)CN)c3=O)s2)cn1 [Example 56, hydrochloride]           nM                  4200
2  CN1C(=O)Cc2cc(-c3ccc(Cn4cnn(C/C(=C/F)CN)c4=O)s3)cnc21 [Example 73, hydrochloride]           nM                  6100
3  Cn1c(-c2ccc(Cn3cnn(C/C(=C/F)CN)c3=O)s2)cnc1Cl           nM                  1400

Problem: Value lookup for IC50; key = NC/C(=C\F)Cn1ncn(Cc2ccc(-c3ccc(=O)n(Cc4ccccc4)c3)s2)c1=O
Solution: 1500
